Target: 4'-phosphopantetheinyl transferase ffp (Bacillus subtilis) (UniProt Q9F4F7)
Assay: qHTS Assay for Inhibitors of Bacillus subtilis Sfp phosphopantetheinyl transferase (PPTase);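 further: the enzyme is Sfp with the accession as filed and its product quenches rhodamine fluorescence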;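 on largest response in the series, negative = inhibition: 0% = enzyme reaction without inhibitor and -100% = no enzyme wells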
Conditions: Biochemical Sfp PPTase activity
Hit rate of the full screen: of about 310,000 compounds, about 11,000 (3.5%) were called active. Roughly 4% stayed inconclusive and do not appear here. The sample holds actives, similar compounds and a random draw of the others, so the mix is not that of the screen. Non-standard residues stand in square brackets, D forms with d. Residues, ends and D or L forms follow the SMILES beside them. ξ: configuration not given here. *: point of attachment. Cbz = O=C(OCc1ccccc1)*; ξL = CC(C)CC(N)C(=O)O; ξP = O=C(O)C1CCCN1
Could you please report measured largest response in the series, negative = inhibition for the items listed next?
# value in %; strip the unit string

Report largest response in the series, negative = inhibition for `COc1cc(NC(=O)NCC2CCN(Cc3ccc(C)cc3)CC2)cc(OC)c1OC`
4.55

Report largest response in the series, negative = inhibition for `COc1ccccc1C1CCN(C(=S)Nc2ccc(Br)cc2)CC1`
16.1

Report largest response in the series, negative = inhibition for `O=C(O)c1cc([N+](=O)[O-])c(Nc2cccc3ccccc23)c([N+](=O)[O-])c1`
-7.55

Report largest response in the series, negative = inhibition for `O=C(Nc1nnc(-c2ccc(F)cc2)s1)c1c(F)cccc1Cl`
11.5

Report largest response in the series, negative = inhibition for Cc1nonc1C1CCCN1C(=O)c1cc(COc2cccc(C(F)(F)F)c2)on1 (configuration not stated)
14.2

Report largest response in the series, negative = inhibition for CC(C)CC(NC(=O)C1CCCN1C(=O)[C@@H](C)NC(=O)OCc1ccccc1)C(=O)NCC(N)=O (some centres not stated) (Cbz-[dA][ξP][ξL]G-NH2)
4.6

Report largest response in the series, negative = inhibition for `COc1ccc(CC(=O)N/N=C/c2cc([N+](=O)[O-])cc(Br)c2O)cc1`
23.5

Report largest response in the series, negative = inhibition for CC(CC(=O)N1CCN(c2ccccc2)CC1)S(=O)(=O)c1ccc2c(c1)NC(=O)CS2 (configuration not stated)
13.4

Report largest response in the series, negative = inhibition for `O=C(O)c1cc(S(=O)(=O)N(Cc2ccccc2)c2ccccc2)ccc1Cl`
19

Report largest response in the series, negative = inhibition for COc1ccc(NC(=S)N2CCCC(CO)C2)c(OC)c1 (configuration not stated)
-15.1

Report largest response in the series, negative = inhibition for `COc1ccc(CNC(=O)C2CCN(C(=O)c3ccccc3)CC2)cc1`
8.47

Report largest response in the series, negative = inhibition for `CSc1nnc2ccc(-c3ccc(C)cc3)nn12`
4.27

Report largest response in the series, negative = inhibition for COc1ccc(C(C(=O)NC2CCCC2)N(CCCO)C(=O)Cn2nnc(-c3ccc(C)o3)n2)cc1 (configuration not stated)
1.56

Report largest response in the series, negative = inhibition for O=C(C1CCCO1)N1CCN(S(=O)(=O)c2ccc(Br)cc2)CC1 (configuration not stated)
-3.46

Report largest response in the series, negative = inhibition for O=C(Nc1ccc(S(=O)(=O)NCC2CCCO2)cc1)c1ccc(F)cc1 (configuration not stated)
10.5

Report largest response in the series, negative = inhibition for Cc1cc(F)ccc1N1CCC(N2CCN(C)C(CCO)C2)CC1 (configuration not stated)
6.62

Report largest response in the series, negative = inhibition for CC(=O)OC(COc1ccc(F)cc1)Cn1cnc2ccccc21 (configuration not stated)
-2.66

Report largest response in the series, negative = inhibition for `c1ccc(Cc2nn3c(Cn4cnc5ccccc54)nnc3s2)cc1`
-63.8

Report largest response in the series, negative = inhibition for CC(OC(=O)c1ccc2noc(-c3ccccc3)c2c1)C(N)=O (configuration not stated)
9.21

Report largest response in the series, negative = inhibition for `COc1ccc(N=Nc2c(-c3ccc(OC)cc3)[nH]oc2=O)cc1`
24.2

Report largest response in the series, negative = inhibition for `COc1ccc(-c2onc3ccc(C(C)=O)cc23)cc1`
15.7

Report largest response in the series, negative = inhibition for `CC(=O)N1CCN(C(=O)C2(NC(=O)Nc3ccc(C)cc3)CCCCC2)CC1`
14.1

---

Molecular target: 4'-phosphopantetheinyl transferase ffp (Bacillus subtilis) (UniProt Q9F4F7)
Test: qHTS Assay for Inhibitors of Bacillus subtilis Sfp phosphopantetheinyl transferase (PPTase); further: potency means the concentration at half of the fitted maximal effect;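 further: the enzyme is Sfp with the accession as filed and its product quenches rhodamine fluorescence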
Conditions: Biochemical Sfp PPTase activity
The whole screen tested about 310,000 compounds, of which about 11,000 (3.5%) were called active. Inconclusive results (about 4%) are left out. Only a selection was taken, and actives are over-represented in it overall.
measured parameter: Potency

Report Potency for `CC(=O)N(C1=C(Cl)C(=O)c2ccccc2C1=O)c1ccc(C(=O)O)cc1`
1 µM (active)

Report Potency for `COc1cc(C(=O)NC(=S)NCc2ccco2)cc(OC)c1OC`
44.7 µM (active)

Report Potency for O=c1cc(CO)oc(C(Nc2cccc([N+](=O)[O-])c2)c2ccccn2)c1O (stereo not given)
20 µM (active)

Report Potency for COC(=O)C1=C(C(=O)OC)C(c2cc([N+](=O)[O-])ccc2O)c2sc(=O)[nH]c2S1 (stereo not given)
44.7 µM (active)

Report Potency for `Oc1c(C=Nc2cccc3nsnc23)ccc2ccccc12`
44.7 µM (active)

Report Potency for O=c1cc(CO)oc(C(Nc2cccc(C(F)(F)F)c2)c2ccccn2)c1O (stereo not given)
7.94 µM (active)

Report Potency for `CCOc1cccc(/C=N/N2C(=O)CSC2=S)c1O`
10 µM (active)

Report Potency for `Fc1ccc(OCc2nn3c(Cn4nnc5ccccc54)nnc3s2)cc1`
15.8 µM (active)

Report Potency for CCc1ccc2c(c1)C1(NN=C(c3ccccc3)S1)C(=O)N2 (stereo not given)
8.91 µM (active)

Report Potency for COC(=O)C1=C(C)NC2=C(C(=O)c3ccccc32)C1c1ccc(-c2ccc(C(=O)O)cc2)o1 (stereo not given)
14.1 µM (active)

---

Molecular target: 4'-phosphopantetheinyl transferase ffp (Bacillus subtilis) (UniProt Q9F4F7)
Assay: qHTS Assay for Inhibitors of Bacillus subtilis Sfp phosphopantetheinyl transferase (PPTase);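 further: the enzyme is Sfp with the accession as filed and its product quenches rhodamine fluorescence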;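 on largest response in the series, negative = inhibition: 0% = enzyme reaction without inhibitor and -100% = no enzyme wells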
Conditions: Biochemical Sfp PPTase activity
Among all 310,000 compounds or so, about 11,000 (3.5%) were called active. About 4% were inconclusive and are not listed. The list comes from a sample in which actives are over-represented; it also holds close analogues and randomly drawn compounds.
Could you please report measured largest response in the series, negative = inhibition for the items listed next?
# value in %; strip the unit string

Report largest response in the series, negative = inhibition for `COc1ccccc1CC(=O)Nc1ccc(S(=O)(=O)N2CCCC2)cc1`
4.84

Report largest response in the series, negative = inhibition for `O=C1c2cccc3cc(Br)cc(c23)C(=O)N1Nc1ccccc1`
9.09

Report largest response in the series, negative = inhibition for `COc1cc(Cl)ccc1OCc1cc(C(=O)N2CC[C@@H]3CCCC[C@H]3C2)no1`
-14.4

Report largest response in the series, negative = inhibition for O=S(=O)(NC1CCCCC1N1CCC(O)CC1)c1ccc(Cl)cc1 (configuration not stated)
10.1

Report largest response in the series, negative = inhibition for `Oc1oc(-c2ccccc2Br)nc1/C=N/c1ccccn1`
-0.12

Report largest response in the series, negative = inhibition for `COc1ccc(CNC(=O)c2cc(C(=O)C3CC3)c[nH]2)cc1`
19.2

Report largest response in the series, negative = inhibition for `Cc1cc(OCc2ccc(C(=O)Nc3ccc(C(=O)O)cc3)o2)ccc1Cl`
0.726

Report largest response in the series, negative = inhibition for `CCN1C(=O)/C(=c2\s/c(=C3\Sc4ccccc4N3C)c(=O)n2C)N(C)C1=S`
1.11

Report largest response in the series, negative = inhibition for `CCN1CCN(c2ccc(S(=O)(=O)N3CCCCC3)cc2NC(=O)Cc2c(Cl)cccc2Cl)CC1`
-8.91

Report largest response in the series, negative = inhibition for `CCN1CCN(C(=O)C2CCN(S(=O)(=O)c3cc(Cl)ccc3Cl)CC2)CC1`
7.6

Report largest response in the series, negative = inhibition for CC(Sc1nnnn1C1CCCCC1)C(=O)O (configuration not stated)
0.844

Report largest response in the series, negative = inhibition for `N#C/C(=C/c1ccc(N2CCCCC2)o1)C(=O)NCCc1c[nH]c2ccccc12`
-16.2

Report largest response in the series, negative = inhibition for `CCCCN1C(=O)/C(=C2/Sc3ccc(Cl)cc3N2CC)SC1=S`
3.35

Report largest response in the series, negative = inhibition for `S=C(Nc1ccc(Br)cc1)NC1CCN(Cc2ccccc2)CC1`
5.78

Report largest response in the series, negative = inhibition for `CC(C)(C)C(=O)/C(C#N)=C/c1ccc(O)cc1`
8.9

Report largest response in the series, negative = inhibition for `Cc1cccc(C)c1NC(=O)COC(=O)c1ccccc1O`
-13

Report largest response in the series, negative = inhibition for `CCN(C(=O)c1cc([N+](=O)[O-])ccc1NCc1cccnc1)c1ccccc1`
-0.174

Report largest response in the series, negative = inhibition for CC(OC(=O)c1ccccc1N1C(=O)C2C3CCC(C3)C2C1=O)C(=O)c1ccccc1 (configuration not stated)
11.3

Report largest response in the series, negative = inhibition for COC(=O)C1=C(C)N=C2SC(C)C(=O)N2C1/C=C/c1ccccc1 (configuration not stated)
18.9

Report largest response in the series, negative = inhibition for CC1CCN(S(=O)(=O)c2ccc(NC(=O)C3CC(=O)N(c4ccccc4)C3)cc2)CC1 (configuration not stated)
6.28

Report largest response in the series, negative = inhibition for O=C(O)CC1=C(Nc2ccccc2)C(=O)N(c2ccccc2)C1c1ccc(Cl)cc1 (configuration not stated)
18.5

Report largest response in the series, negative = inhibition for `COc1cc(NS(=O)(=O)c2ccc(NC(=S)NC(=O)c3ccc(Br)cc3)cc2)ncn1`
1.72
